Source of measurements: ChEMBL document CHEMBL3112550

Please provide measured pIC50 for the entries that follow.
- target-under-test: UniProtKB Q7ZJM1
- test-name: Inhibition of HIV-1 integrase expressed in Escherichia coli using [32P]-labeled U5B-2/U5A DNA as substrate assessed as inhibition of strand transfer reaction after 2 hrs by PAGE analysis in presence of Mg2+
Lab note — pIC50 values are minus log10 of concentrations in M.

Need pIC50 of NC(Cc1ccc(Cl)c(Cl)c1)(P(=O)(O)O)P(=O)(O)O , thanks.
5.52

Need pIC50 of O=P(O)(O)C(Cc1ccc(Cl)c(Cl)c1)P(=O)(O)O , thanks.
4.52

Need pIC50 of O=P(O)(O)C(Cc1ccc(Cl)c(Cl)c1)(Cc1ccc(Cl)c(Cl)c1)P(=O)(O)O , thanks.
4.80

Need pIC50 of O=P(O)(O)C(O)(Cc1ccc(Cl)cc1)P(=O)(O)O , thanks.
4.38

Need pIC50 of O=P(O)(O)C(O)(Cc1ccc(Cl)c(Cl)c1)P(=O)(O)O , thanks.
4.35

* * *

- target-under-test: Human immunodeficiency virus type 1 integrase (Human immunodeficiency virus 1, UniProt Q7ZJM1, N155H)
- Sequence (Q7ZJM1 entry or part of it N155H): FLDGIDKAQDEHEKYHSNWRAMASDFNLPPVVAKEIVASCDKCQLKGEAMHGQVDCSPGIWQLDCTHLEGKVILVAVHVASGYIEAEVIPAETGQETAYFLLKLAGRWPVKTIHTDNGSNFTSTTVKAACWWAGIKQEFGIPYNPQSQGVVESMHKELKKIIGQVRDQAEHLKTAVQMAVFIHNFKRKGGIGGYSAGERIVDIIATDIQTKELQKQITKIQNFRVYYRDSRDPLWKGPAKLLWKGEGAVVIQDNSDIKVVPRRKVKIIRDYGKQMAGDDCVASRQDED
- test-name: Inhibition of HIV-1 integrase N155H mutant expressed in Escherichia coli using [32P]-labeled U5B/U5A DNA as substrate assessed as inhibition of 3'-processing reaction after 2 hrs by PAGE analysis in presence of Mg2+
Please provide measured IC50 for the entries that follow.
Output spec: scalar in µM, unitless text.

Need IC50 of NC(Cc1ccc(Cl)c(Cl)c1)(P(=O)(O)O)P(=O)(O)O , thanks.
7

Need IC50 of O=P(O)(O)C(O)(Cc1ccc(Cl)c(Cl)c1)P(=O)(O)O , thanks.
35
